Provide the recorded amyloid nucleation score for the entries that follow.
Assay: amyloid nucleation score (Sup35N fusion, yeast selection) (log enrichment); library NNK2; higher = more nucleation; inactive = no reads after selection;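 further: zero at mode of non-aggregating sequences after 7 days selection at 30°C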
Give bare numbers.

Here's what some known entries look like.
SGIHEIFESVFFNTYFRRMT ... -0.549
KNTMIGSLRLVIYFSSGDKV ... 7.17
SSIDMSCQHHLVALIRGFKE ... 2.24
MRTRWAVITKMFRRGWEVKV ... 0.753
DGPWYYTVRAEIQPM ... 3.78
LVHYPIYFLDNGFRHGDWEG ... -0.187
TVAGYCVPSSSCRTGTFTVC ... -0.567
SLGPRRSCCTIWKVWAYAGS ... 0.241
YHCGFGAS ... 0.837
VPNVCAGYQPSETETYVLVR ... 0.185

Could I get amyloid nucleation score for every one of these entries?
1. YLYSAQNIRGRWLFCSMKCD
2. TYPMMGQGFC
3. RYASDFWILNICAGDIVILL
4. LIVGAIASLHHTLQVNGSPN
5. YIFSIS

1: -1.03; 2: 0.131; 3: 8.49; 4: 4.59; 5: -1.26

Here are 4 substances. What values of amyloid nucleation score were reported for them?
1. NPFYYTGLTIPCFVYHRIKS
2. SRRFFQKIRLWGMTDQQKGM
3. DRNVTESMGYVWTASWGAY
4. FQGVVSRYSYYS

1: -0.508; 2: 3.08; 3: 0.366; 4: 1.81

====

Test: amyloid nucleation score (Sup35N fusion, yeast selection) (log enrichment); library NNK1; higher = more nucleation; inactive = no reads after selection
Hi all, reminder that labels come from amyloid nucleation score, split as range 1: < 0.5; range 2: ≥ 0.5 and < 1; range 3: ≥ 1

AWSRLSVNPVVEENVMAIAL ... range 2
IIRGVTAGALFYYFSVILLR ... range 1
QHHMVEIWPSDECVEWLVSS ... range 1
NGCTIVGVTKGSLNH ... range 3
QLEDAVKMGLVEFEGRSHGS ... range 2
AIIDDHSVCYNVLKRFSNFG ... range 3
KWNLGYIYMYRATIK ... range 3
VLLYKSLAV ... range 2

# ---- query sequence ----
Quick check: band for AERPSLYWLKLRKRRITVV range 1

====

Experiment: amyloid nucleation score (Sup35N fusion, yeast selection) (log enrichment); library NNK1; higher = more nucleation; inactive = no reads after selection
Would you please tag the item YES when its amyloid nucleation score is 0.2 or above, and NO when it is below?

Worked set:
GNTSMILSPA ... NO
YRKFHPGKRL ... NO

Does amyloid nucleation score meet or surpass 0.2 for PCYAVYITAPINV ? YES

Given HRLRLSVVRAIYDTQIHQRA , state whether its amyloid nucleation score is at least 0.2. NO

Exam item: decide whether the reported amyloid nucleation score for IISTWSYGSES is at least 0.2. YES

Could you verify whether the entry PQLRLLPGVLGNPGNGHSRI shows amyloid nucleation score of no less than 0.2? YES

Please indicate if the recorded amyloid nucleation score for IYPCICSRNFDPKLYKVNTR meets or exceeds 0.2. YES

I'd appreciate it if you could say whether RVRLTFCCLMAVRSRSMISK has amyloid nucleation score at least equal to 0.2. YES

Tell me whether amyloid nucleation score is at least 0.2 here: MFHSYVSLGLCKW YES

Tell me whether amyloid nucleation score is at least 0.2 here: QDFSVTPHGV YES

Does the reported amyloid nucleation score for GVLRSSTSTVRGSCAGFHRL fall at or above the 0.2 mark? YES

Say whether YHSSYVK shows amyloid nucleation score of 0.2 or more. NO

Please indicate if the recorded amyloid nucleation score for GKCFVVMWRVLGVDSVLMEV meets or exceeds 0.2. NO

Check this substance for amyloid nucleation score at or above 0.2: LFNKNGYNSETRFLFKLGFD YES

Record STTPQRLNFDMSTPISWIRQ ; criterion: amyloid nucleation score no lower than 0.2. Met? NO
